Assay: Drug repurposing screens with cells derived from glioblastoma tumor samples (AID 1345199); note: % is set by controls: 0 for no effect and ±100 for the full control effect; nearly all actives have a fitted effect of over 40% in size
Settings: GBM patient neurospheres viability, ATP luminescence, 48 h; at 45.9 µM (top of the series); tumour line D
Description: CD133+ cells were isolated from GBM patient biopsies and cultured as neurospheres. Neurospheres from four patients were used to screen the NCATS pharmaceutical collection (NPC) library of approved drugs and bioactive compounds. […] The neurospheres were incubated with drugs for 48 hours in 1536-well format, then assayed with an ATP content cell viability assay. […]
Records with an inconclusive call do not appear.
Reported Property: activity, negative = cell killing (%)
Numbers only; they are read as %.

## Input Record request: activity, negative = cell killing value, item CC(C)C1CCC(C(=O)N[C@H](Cc2ccccc2)C(=O)O)CC1 (stereo partly specified)
## Output 5.65

## Input Again, but for "NNC(=O)c1ccncc1"
## Output -4.61

## Input Again, but for "Clc1ccccc1CN1CCc2sccc2C1"
## Output -10.5

## Input Again, but for COC(=O)Nc1nc2ccc(S(=O)c3ccccc3)cc2[nH]1 (stereo unspecified)
## Output -1.35

## Input Again, but for "C[C@]12C=CC(=O)C=C1CC[C@@H]1[C@@H]2C(=O)C[C@@]2(C)[C@H]1CC[C@]2(O)C(=O)CO"
## Output 5.45

## Input Again, but for "COc1ccc2c(c1)c(CC(=O)OCC(=O)O)c(C)n2C(=O)c1ccc(Cl)cc1"
## Output -7.57

## Input Again, but for "NC(=O)N1c2ccccc2CC(=O)c2ccccc21"
## Output -1.67

## Input Again, but for "CC[C@H](NC(C)C)[C@H](O)c1ccc(O)c2[nH]c(=O)ccc12"
## Output -7.02

## Input Again, but for "CC(C)(C#N)c1cc(Cn2cncn2)cc(C(C)(C)C#N)c1"
## Output -8.79

## Input Again, but for "CCN[C@H]1C[C@H](C)S(=O)(=O)c2sc(S(N)(=O)=O)cc21"
## Output 3.44

## Input Again, but for "N[C@@H](C(=O)N[C@@H]1C(=O)N2C(C(=O)O)=C(Cl)CS[C@H]12)c1ccccc1"
## Output 11.2
